The measurements presented in this section are drawn from ChEMBL document CHEMBL6153050.

System: Quadruplex DNA
condition.set: time 10.0 min
Note to self: use Met only for deltaTm1/2 readings below 2 °C; a reading exactly at 2 °C still gets Not met.

>>> df
                                    molecule  target_or_test_system  answer_label
 0  CCN(CC)CCCC(C)Nc1c2ccc(Cl)cc2nc2ccc(OC)cc12 (stereo not given)         Quadruplex DNA       Not met
 1  Cc1cc2ncc(C(=O)NCC(C)(C)NCC(=O)N3CCC[C@H]3C#N)cn2n1         Quadruplex DNA           Met
 2  COc1cc(O)c(C(=O)Nc2nc(C(=O)NCCN(C(C)C)C(C)C)cs2)cc1OC         Quadruplex DNA       Not met
 3      CCCCOc1cc(C(=O)NCCN(CC)CC)c2ccccc2n1         Quadruplex DNA       Not met
 4  CCc1cc2c(cc1N1CCC(N3CCOCC3)CC1)C(C)(C)c1[nH]c3cc(C#N)ccc3c1C2=O         Quadruplex DNA           Met
 5  CCc1c2c(nc3ccc(OC(=O)N4CCC(N5CCCCC5)CC4)cc13)-c1cc3c(c(=O)n1C2)COC(=O)[C@]3(O)CC         Quadruplex DNA       Not met
 6  CC[C@@]1(O)C(=O)OCc2c1cc1n(c2=O)Cc2c-1nc1ccccc1c2CCNC(C)C         Quadruplex DNA       Not met
 7  COc1cc(NC(C)CCCN)c2ncccc2c1 (stereo not given)         Quadruplex DNA       Not met
 8  CONC(=O)Nc1ccc(-c2sc3c(c2CN(C)C)c(=O)n(-c2ccc(OC)nn2)c(=O)n3Cc2c(F)cccc2F)cc1         Quadruplex DNA       Not met
 9  Cc1c(-c2ccccc2)oc2c(C(=O)OCCN3CCCCC3)cccc2c1=O         Quadruplex DNA       Not met
10  CCc1cc2c(cc1CC)CC(NC[C@H](O)c1ccc(O)c3[nH]c(=O)ccc13)C2         Quadruplex DNA       Not met
11  COc1c(-c2ccc3cc(NS(C)(=O)=O)ccc3c2)cc(-n2ccc(=O)[nH]c2=O)cc1C(C)(C)C         Quadruplex DNA           Met
12  Cn1nnc(-c2ccc(-c3ccc(N4C[C@H](CO)OC4=O)cc3F)cn2)n1         Quadruplex DNA       Not met
13  COc1ccc(-c2cc(=O)c3c(OC)c(OC)c(OC)cc3o2)cc1OC         Quadruplex DNA       Not met
14  CCn1cc(C(=O)O)c(=O)c2cc(F)c(N3CCN(C)CC3)cc21         Quadruplex DNA           Met
15  O=C(c1ccc(OCCN2CCCCC2)cc1)c1c(-c2ccc(O)cc2)sc2cc(O)ccc12         Quadruplex DNA       Not met
16  CN1CCCC(n2nc(Cc3ccc(Cl)cc3)c3ccccc3c2=O)CC1 (stereo not given)         Quadruplex DNA       Not met
17  CN1CCC[C@@H]1Cc1c[nH]c2ccc(CCS(=O)(=O)c3ccccc3)cc12         Quadruplex DNA       Not met
18  N[C@@H]1CCCCN(c2c(F)cc3c(=O)c(C(=O)O)cn(C4CC4)c3c2Cl)C1         Quadruplex DNA           Met
19         CN(C)CCCOc1nn(Cc2ccccc2)c2ccccc12         Quadruplex DNA           Met
